Value source: ChEMBL document CHEMBL1154382

# Test system: SK-OV-3
# Protocol description: Antiproliferative activity against human SKOV3 cells at 10 uM assessed as cell growth inhibition relative to control
# Assay type: functional
The source made the active and inactive calls. No cut-off for these calls is given here.
Assay readout: growth inhibition (GI)

>  <Mol>
[N-]=[N+]=NC[C@H]1O[C@@H](n2cnc3c(NC(=O)Nc4ccccc4)ncnc32)[C@@H]2OC(=O)C[C@@H]21

>  <Assay readout>
growth inhibition (GI)

>  <Data value>
inactive

$$$$
>  <Mol>
CNC(=O)NC[C@H]1O[C@@H](n2cnc3c(NC(=O)Nc4ccccc4)ncnc32)[C@@H]2OC(=O)C[C@@H]21

>  <Assay readout>
growth inhibition (GI)

>  <Data value>
inactive

$$$$
>  <Mol>
CNC(=O)NC[C@H]1O[C@@H](n2cnc3c(NC(=O)Nc4ccccc4)ncnc32)[C@H](O)[C@@H]1O

>  <Assay readout>
growth inhibition (GI)

>  <Data value>
inactive

$$$$
>  <Mol>
CNC(=O)NC[C@H]1O[C@@H](n2cnc3c(NC(=O)Nc4ccccc4)ncnc32)[C@@H]2OC(C)(C)O[C@@H]21

>  <Assay readout>
growth inhibition (GI)

>  <Data value>
inactive

$$$$
